Experiment: solvent given as SMILES
Conditions: in ClC(Cl)Cl
Property: emission maximum (nm)

[
  {
    "Compound": "COC1=[N+]2C(=C(c3ccc(C)cc3)c3ccc(OC)n3[B-]2(F)F)C=C1",
    "Quantity unit": "nm",
    "Quantitative result": 529
  },
  {
    "Compound": "N=c1oc2ccccc2cc1-c1ccc([N+](=O)[O-])cc1",
    "Quantity unit": "nm",
    "Quantitative result": 436
  },
  {
    "Compound": "CCCCCCCCCCCCCCCCCCOc1ccc(C#Cc2cc3nc4c(OCCCCCCCCCCCC)cc5c6cc(OCCCCCCCCCCCC)c(OCCCCCCCCCCCC)cc6c6cc(OCCCCCCCCCCCC)c(OCCCCCCCCCCCC)cc6c5c4nc3cc2C#Cc2ccc(OCCCCCCCCCCCCCCCCCC)cc2)cc1",
    "Quantity unit": "nm",
    "Quantitative result": 660
  },
  {
    "Compound": "Cc1c2c(c(C)c3ccccc13)C1=C2C=CC2Nc3ccccc3NC12 (centres undefined)",
    "Quantity unit": "nm",
    "Quantitative result": 544
  }
]

----------
Test: solvent given as SMILES
Conditions: in CC#N
Property: emission maximum (nm)

(a) Cc1ccc(C2=C3C=C(I)C=[N+]3[B-](F)(F)n3cc(I)cc32)cc1
(b) COC(=O)c1nc(-c2ccco2)oc1C
I'm curious, which of these has a smaller emission maximum number: a or b ? In your reply, give the label of the chosen option. b
(b: 318 nm, a: 573 nm)

(I) N#CSC1=CC2=C(c3ccccc3)c3ccc(SC#N)n3[B-](F)(F)[N+]2=C1N1CCOCC1
(II) Cc1sc(Cl)cc1-c1nc(-c2ccc(Cl)cc2)[nH]c1-c1cc(Cl)sc1C
Field: lower recorded emission maximum (choose I or II ) State your choice using its label. II

----------
Assay: solvent given as SMILES
Settings: in CC#N
emission maximum values by entry
Field: numeric (nm). Do not append units.

Solved cases below.
[
  {
    "Compound": "N#CC1=c2c3cccc4c(Br)ccc(c43)n2[B-](F)(F)[n+]2ccccc21",
    "emission maximum / nm": 541
  },
  {
    "Compound": "C=CC1CN2CCC1CC2[C@@H](OCc1ccccc1)c1ccnc2ccc(O)cc12 (some centres undefined)",
    "emission maximum / nm": 362
  },
  {
    "Compound": "COC(=O)C(Cc1ccc2oc(-c3ccc(N(C)C)cc3)nc2c1)NC(=O)OC(C)(C)C (centres undefined)",
    "emission maximum / nm": 395.51
  }
]

Please look at the following compound next.
Tell me its emission maximum given c1ccc(-c2nnc(-c3cc(-n4c5ccccc5c5ccccc54)c(-n4c5ccccc5c5ccccc54)cc3-c3nnc(-c4ccccc4)o3)o2)cc1 as the entry. 525.15

----------
Assay: solvent given as SMILES
Settings: in CCN(CC)CC
Catalogue of molecules with associated emission maximum
// units = nm; emit number, no label

Worked examples, 5 molecules total:
[
  {
    "Compound smiles": "CC(C)(C)c1ccc(-c2nc3c4ccc(-c5ccccc5)cc4c4cc(-c5ccccc5)ccc4c3n2-c2ccc(C(C)(C)C)cc2)cc1",
    "Property": "emission maximum",
    "Quantitative result": 386
  },
  {
    "Compound smiles": "c1ccc(-n2c(-c3ccc(-c4ccc(-c5ccc(-c6nc7c8ccccc8c8ccccc8c7n6-c6ccccc6)cc5)cc4)cc3)nc3ccccc32)cc1",
    "Property": "emission maximum",
    "Quantitative result": 409
  },
  {
    "Compound smiles": "c1ccc(-c2nc(-c3ccc(-c4ccc(-n5c6ccccc6c6ccccc65)cc4)cn3)oc2-c2ccccc2)cc1",
    "Property": "emission maximum",
    "Quantitative result": 396
  },
  {
    "Compound smiles": "CC(C)(C)c1ccc(-c2nc3c4ccc(-c5cccc6ccccc56)cc4c4cc(-c5cccc6ccccc56)ccc4c3n2-c2ccc(C(C)(C)C)cc2)cc1",
    "Property": "emission maximum",
    "Quantitative result": 382
  },
  {
    "Compound smiles": "CC(C)(C)c1ccc(-c2nc3c4ccc(-c5c6ccccc6cc6ccccc56)cc4c4cc(-c5c6ccccc6cc6ccccc56)ccc4c3n2-c2ccc(C(C)(C)C)cc2)cc1",
    "Property": "emission maximum",
    "Quantitative result": 421
  }
]

Here is another molecule to look at.
State, in one line, measured emission maximum of CC(C)(C)c1ccc(-c2nc3c4ccc(-c5cc6ccccc6c6ccccc56)cc4c4cc(-c5cc6ccccc6c6ccccc56)ccc4c3n2-c2ccc(C(C)(C)C)cc2)cc1 384
